target: HIV protease (Human immunodeficiency virus type 1 group M subtype B, UniProt P04585)
MEASURED_PARAMETER: IC50 (nM)
Give bare numbers, in nM.

// known answers, use as guide
[[record]]
molecule = "COc1ccc(S(=O)(=O)N(CCC(C)C)C[C@@H](O)[C@H](Cc2ccccc2)NC(=O)[C@H](C)CS(C)(=O)=O)cc1 (relative stereo) [Example 2]"
recorded_value = 3.2

[[record]]
molecule = "CCCCN(C[C@@H](O)[C@H](Cc1ccccc1)NC(=O)[C@H](C)CS(C)(=O)=O)S(=O)(=O)c1ccccc1 (relative stereo) [Example 6]"
recorded_value = 8.8

[[record]]
molecule = "COc1ccc(S(=O)(=O)N(CC(C)C)C[C@@H](O)[C@H](Cc2ccccc2)NC(=O)[C@H](C)CS(C)(=O)=O)cc1OC (relative stereo) [Example 12]"
recorded_value = 38


Next up:
Dear colleague, I am looking for the recorded IC50 of the following molecule: CC(C)CCN(C[C@@H](O)[C@H](Cc1ccccc1)NC(=O)[C@H](C)CS(C)(=O)=O)S(=O)(=O)c1ccc(N)cc1 (relative stereo) [Example 11]
7.8
